Reported log10(TGI) values for the following molecules.
# Tested on: MALME-3M melanoma
# procedure details: NCI tumour cell line growth inhibition, 48 h
All values: log10 TGI [µM].

Reference set (4 entries):
COc1cccc(Nc2ncnc3cc(NC(=O)CCl)ccc23)c1 | 0.40
Cn1[nH]cc2ccc3nc4ccccc4c(=O)c3c21 | 1.84
COC(=O)C1C(C(=O)O)C2(c3ccccc3)C(=O)C1(c1ccccc1)C(c1ccccc1)=C2c1ccccc1 (centres undefined) | 1.77
CSc1c(C#N)c(=O)n(N)c2c1c(C)nn2-c1ccccc1 | 1.85

Specify log10(TGI) for Cc1ccc(N2C(=O)C3c4[nH]c5ccc(C)cc5c4C4CCC(C(C)(C)C)CC4C3C2=O)cc1 (centres undefined) and stop.
1.65

Specify log10(TGI) for "CCN(CC)CCNc1ccc2ncn3c4ccc(OC)cc4c(=O)c1c23" and stop.
1.40

Specify log10(TGI) for "CCc1nc(C)cn1C(=O)OCc1nc2nc(Cl)nc(N3CCOCC3)c2[nH]1" and stop.
0.47

Specify log10(TGI) for "NC(=O)c1c(NC(=O)c2cccs2)sc2c1CCC(=O)C2" and stop.
0.66

Specify log10(TGI) for Cc1nc2sc(C(=O)Nc3cccc(Br)c3C)c(N)c2cc1C(O)c1ccccc1 (centres undefined) and stop.
1.31

====

# Test system: MDA-MB-435
# procedure details: NCI tumour cell line growth inhibition, 48 h
Label 1.0 when TGI >= 10 µM; otherwise 0.0.

// known answers, use as guide
Nc1ccccc1C#C/C=C\C#Cc1ccccc1C#CCO | 0.0
CCOC(=O)[C@@H]1[C@@H](c2ccccc2)N(C)O[C@@]1(c1ccccc1)C(F)(F)F | 1.0
c1ccc2sc(SSSc3nc4ccccc4s3)nc2c1 | 1.0
O=c1[nH]c(=O)c2c([nH]1)[nH]c1ccc(Br)cc12 | 1.0
CN(C)c1ccc(/C=C(\C#N)c2cc3ccccc3[nH]2)cc1 | 0.0
COc1cccc2c1C(=O)c1c(O)c3c(c(O)c1C2=O)C[C@@](O)(/C(CO)=N/NC(=O)CCCCCN1C(=O)C=CC1=O)C[C@@H]3O[C@H]1C[C@H](N)[C@H](O)[C@H](C)O1 | 1.0
C=C(C)C1CC[C@@](C)(O)[C@H](C#N)C1 (stereo not given in full) | 1.0
Nc1[nH]nc2nc(-c3cc(Cl)ccc3Cl)cc(-c3ccc(F)cc3)c12 | 1.0
CCCCC(=O)/C=c1/cc(C)[nH]c2cccc3cnn1c32 | 1.0

Now examine the next entry.
Check this molecule for TGI at or above 10 µM: CCOC(=O)C1=C(C)N(c2ccc(Cl)cc2)C2(O)C=CC(=O)C3=C(O)c4ccccc4C(=O)C312 (stereo not given)
1.0

====

Reported TGI values for the following compounds.
# Test system: UO-31 renal
# procedure details: NCI tumour cell line growth inhibition, 48 h
Return type: number; implicit unit µM.

Reference set (4 entries):
Clc1sc(Cl)c2c1[C@H](Cl)C[C@@H]2Cl | 32.3
Cc1nc2sc(C(=O)Nc3cccc(Br)c3C)c(N)c2cc1C(O)c1ccccc1 (stereo not given) | 12.5
COc1ccc(OC)c(Nc2nc3nonc3nc2Nc2cccc(Br)c2)c1 | 53.7
O=S1SC(=S)C2C=CC=NC21 (stereo not given) | 28.4

Pending compound:
System UO-31 renal. Read-out TGI. Item "C=C1c2nc3ccccc3n2C=C(c2cccc(Cl)c2)N1Cc1ccc(OC)cc1" . Report value.
33.7
